Tested on: KB-V1
Assay: Multidrug resistant ratio of GI50 for human KBV1 cells expressing p-glycoprotein to GI50 for wild type human KB-3-1 cells
Assay type: functional
endpoint: RatioGI50
Answer field: number only, no words.

Cc1ccc(C(Cc2ccccc2)(SCCN)c2ccccc2)cc1 (racemic); 1

// next item, RatioGI50 requested
Task: Output measured RatioGI50 for this item: NCCSC(Cc1ccccc1)(c1ccccc1)c1ccc(Cl)cc1 (racemic)
Result: 1

====

Listed compounds paired with reported pIC50
Target: Kinesin-like protein KIF11 (Homo sapiens, UniProt P52732)
Sequence (P52732 whole entry): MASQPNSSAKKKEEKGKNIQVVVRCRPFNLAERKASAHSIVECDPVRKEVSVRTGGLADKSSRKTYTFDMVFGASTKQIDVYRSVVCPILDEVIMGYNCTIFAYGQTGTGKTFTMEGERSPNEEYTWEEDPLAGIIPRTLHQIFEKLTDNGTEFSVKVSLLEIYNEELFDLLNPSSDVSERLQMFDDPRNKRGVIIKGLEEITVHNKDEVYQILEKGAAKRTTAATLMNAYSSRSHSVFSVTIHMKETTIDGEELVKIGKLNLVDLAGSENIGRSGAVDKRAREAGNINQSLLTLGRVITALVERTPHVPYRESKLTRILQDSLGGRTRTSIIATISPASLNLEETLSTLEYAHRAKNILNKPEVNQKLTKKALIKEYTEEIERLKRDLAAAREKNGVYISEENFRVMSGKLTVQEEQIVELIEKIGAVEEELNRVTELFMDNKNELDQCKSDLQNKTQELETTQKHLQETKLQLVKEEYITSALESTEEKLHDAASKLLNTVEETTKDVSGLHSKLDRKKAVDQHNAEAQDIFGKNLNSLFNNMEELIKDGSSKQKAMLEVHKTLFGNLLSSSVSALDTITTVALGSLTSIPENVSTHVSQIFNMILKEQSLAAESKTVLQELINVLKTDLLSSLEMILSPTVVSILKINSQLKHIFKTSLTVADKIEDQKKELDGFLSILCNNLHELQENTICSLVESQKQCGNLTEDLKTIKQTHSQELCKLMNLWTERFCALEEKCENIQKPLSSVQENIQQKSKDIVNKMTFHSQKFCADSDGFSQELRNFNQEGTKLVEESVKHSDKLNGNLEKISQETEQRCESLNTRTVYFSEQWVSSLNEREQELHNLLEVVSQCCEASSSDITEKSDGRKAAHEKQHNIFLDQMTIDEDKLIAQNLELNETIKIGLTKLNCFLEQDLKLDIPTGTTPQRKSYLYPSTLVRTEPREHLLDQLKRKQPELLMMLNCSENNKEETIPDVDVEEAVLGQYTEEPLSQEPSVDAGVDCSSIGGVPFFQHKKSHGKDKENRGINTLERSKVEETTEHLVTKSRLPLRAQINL
Entry type: numeric. Quantity: pIC50, the -log10 of concentration in molar units.

Example compounds with recorded pIC50:
N[C@@H](CSC(Cc1ccccc1)(c1ccccc1)c1ccccc1)C(=O)O; 6.86
NCCSC(Cc1ccccc1)(c1ccccc1)c1ccccc1; 6.16

Here's the next entry for you.
Task: Output measured pIC50 for this item: N[C@@H](CSC(Cc1ccccc1)(c1ccccc1)c1cccc(Cl)c1)C(=O)O (mixture of isomers)
Result: 6.89

====

Test: Cytotoxicity against human KBV1 cells expressing p-glycoprotein
Format: functional
Conditions: KB-V1
Recorded GI50 by entry

Take a look at these entries with their results.
N[C@@H](CSC(Cc1ccccc1)(c1ccccc1)c1ccccc1)C(=O)O; > 50 µM
N[C@@H](CSC(Cc1ccccc1)(c1ccccc1)c1ccc(Cl)cc1)C(=O)O (mixture of isomers); > 50 µM

Continue with the next compound.
Task: Query GI50 for Cc1ccc(C(Cc2ccccc2)(SC[C@H](N)C(=O)O)c2ccccc2)cc1 (mixture of isomers)
Result: > 50 µM

====

Test system: KB-V1
Assay: Multidrug resistant ratio of GI50 for human KBV1 cells expressing p-glycoprotein to GI50 for wild type human KB-3-1 cells
Type: functional
endpoint: RatioGI50

N[C@@H](CSC(Cc1ccccc1)(c1ccccc1)c1ccccc1)C(=O)O; >10
Cc1ccc(C(Cc2ccccc2)(SC[C@H](N)C(=O)O)c2ccccc2)cc1 (mixture of isomers); >20

Now, please, on to the next compound.
Task: Give me measured RatioGI50, please, for this compound: N[C@@H](CSC(Cc1ccccc1)(c1ccccc1)c1ccc(Cl)cc1)C(=O)O (mixture of isomers)
Result: >10

====

Target: Kinesin-like protein KIF11 (Homo sapiens, UniProt P52732)
Sequence (P52732 whole entry): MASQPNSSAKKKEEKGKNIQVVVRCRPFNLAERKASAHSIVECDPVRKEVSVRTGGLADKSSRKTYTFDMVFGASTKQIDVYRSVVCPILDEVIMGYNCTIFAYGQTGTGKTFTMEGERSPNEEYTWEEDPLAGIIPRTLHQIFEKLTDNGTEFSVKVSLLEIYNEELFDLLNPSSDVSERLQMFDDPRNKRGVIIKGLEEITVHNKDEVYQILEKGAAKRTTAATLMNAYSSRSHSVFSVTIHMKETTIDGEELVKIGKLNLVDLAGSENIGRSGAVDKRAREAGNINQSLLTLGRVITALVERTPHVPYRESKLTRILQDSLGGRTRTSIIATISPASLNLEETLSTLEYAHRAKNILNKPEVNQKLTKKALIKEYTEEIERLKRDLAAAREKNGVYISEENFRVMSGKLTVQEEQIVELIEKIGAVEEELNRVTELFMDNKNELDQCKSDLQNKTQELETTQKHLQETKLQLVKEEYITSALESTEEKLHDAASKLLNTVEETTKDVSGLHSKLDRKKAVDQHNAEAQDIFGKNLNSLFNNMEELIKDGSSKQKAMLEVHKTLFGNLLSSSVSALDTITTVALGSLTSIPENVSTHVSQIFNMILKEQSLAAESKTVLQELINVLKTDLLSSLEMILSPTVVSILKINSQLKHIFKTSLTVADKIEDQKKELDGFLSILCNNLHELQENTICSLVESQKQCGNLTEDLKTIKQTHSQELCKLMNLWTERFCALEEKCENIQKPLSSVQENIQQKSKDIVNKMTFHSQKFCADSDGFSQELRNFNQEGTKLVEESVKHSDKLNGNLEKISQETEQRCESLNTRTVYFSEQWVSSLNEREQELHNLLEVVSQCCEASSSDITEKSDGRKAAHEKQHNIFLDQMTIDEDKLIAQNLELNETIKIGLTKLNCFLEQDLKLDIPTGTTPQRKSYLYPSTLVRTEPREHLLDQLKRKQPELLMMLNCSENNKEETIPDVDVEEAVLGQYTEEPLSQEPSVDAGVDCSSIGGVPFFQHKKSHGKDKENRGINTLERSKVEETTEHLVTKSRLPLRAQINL
Could you please mark satisfied for values of IC50 below 200 nM and not satisfied for values at or above it?

Please review the following examples before continuing.
N[C@@H](CSC(Cc1ccccc1)(c1ccccc1)c1ccc(Cl)c(Cl)c1)C(=O)O (mixture of isomers); satisfied
NCCSC(Cc1ccccc1)(c1ccccc1)c1cccc(O)c1 (racemic); not satisfied
N[C@@H](CSC(Cc1ccccc1)(c1ccccc1)c1ccc(Cl)cc1)C(=O)O (mixture of isomers); satisfied
N[C@@H](CSC(Cc1ccccc1)(c1ccccc1)c1ccc(O)cc1)C(=O)O (mixture of isomers); satisfied
N[C@@H](CSC(Cc1ccc(Cl)cc1)(c1ccccc1)c1ccccc1)C(=O)O; not satisfied

Task: Lab note: IC50 threshold 200 nM. Does this compound come in strictly under it? Cc1ccc(C(Cc2ccccc2)(SC[C@H](N)C(=O)O)c2ccc(C)cc2)cc1
Result: satisfied

Task: Strictly below 200 nM in IC50? N[C@@H](CSC(Cc1ccccc1)(c1ccc(F)cc1)c1ccc(F)cc1)C(=O)O (mixture of isomers)
Result: satisfied

Task: Hello, is IC50 of the following compound strictly smaller than 200 nM? NCCSC(Cc1ccccc1)(c1ccccc1)c1cccc(Cl)c1 (racemic)
Result: not satisfied

Task: I'd appreciate it if you could check whether N[C@@H](CSC(C(=O)c1ccccc1)(c1ccccc1)c1ccccc1)C(=O)O has IC50 smaller than 200 nM.
Result: not satisfied

Task: A record lists Cc1ccc(C(Cc2ccccc2)(SCCN)c2ccccc2)cc1 (racemic) . Is its IC50 below 200 nM?
Result: satisfied

Task: State whether 200 nM exceeds IC50 recorded for NCCSC(Cc1ccccc1)(c1ccccc1)c1ccc(Cl)c(Cl)c1 (racemic) .
Result: not satisfied

The measurements presented in this section are drawn from ChEMBL document CHEMBL2040733.
